Quick reference: Emax of the listed items.
Target: human mGlu5a receptor (Homo sapiens (Human), UniProt P41594)
Sequence (P41594 other isoform, or with tags, fused parts or gaps): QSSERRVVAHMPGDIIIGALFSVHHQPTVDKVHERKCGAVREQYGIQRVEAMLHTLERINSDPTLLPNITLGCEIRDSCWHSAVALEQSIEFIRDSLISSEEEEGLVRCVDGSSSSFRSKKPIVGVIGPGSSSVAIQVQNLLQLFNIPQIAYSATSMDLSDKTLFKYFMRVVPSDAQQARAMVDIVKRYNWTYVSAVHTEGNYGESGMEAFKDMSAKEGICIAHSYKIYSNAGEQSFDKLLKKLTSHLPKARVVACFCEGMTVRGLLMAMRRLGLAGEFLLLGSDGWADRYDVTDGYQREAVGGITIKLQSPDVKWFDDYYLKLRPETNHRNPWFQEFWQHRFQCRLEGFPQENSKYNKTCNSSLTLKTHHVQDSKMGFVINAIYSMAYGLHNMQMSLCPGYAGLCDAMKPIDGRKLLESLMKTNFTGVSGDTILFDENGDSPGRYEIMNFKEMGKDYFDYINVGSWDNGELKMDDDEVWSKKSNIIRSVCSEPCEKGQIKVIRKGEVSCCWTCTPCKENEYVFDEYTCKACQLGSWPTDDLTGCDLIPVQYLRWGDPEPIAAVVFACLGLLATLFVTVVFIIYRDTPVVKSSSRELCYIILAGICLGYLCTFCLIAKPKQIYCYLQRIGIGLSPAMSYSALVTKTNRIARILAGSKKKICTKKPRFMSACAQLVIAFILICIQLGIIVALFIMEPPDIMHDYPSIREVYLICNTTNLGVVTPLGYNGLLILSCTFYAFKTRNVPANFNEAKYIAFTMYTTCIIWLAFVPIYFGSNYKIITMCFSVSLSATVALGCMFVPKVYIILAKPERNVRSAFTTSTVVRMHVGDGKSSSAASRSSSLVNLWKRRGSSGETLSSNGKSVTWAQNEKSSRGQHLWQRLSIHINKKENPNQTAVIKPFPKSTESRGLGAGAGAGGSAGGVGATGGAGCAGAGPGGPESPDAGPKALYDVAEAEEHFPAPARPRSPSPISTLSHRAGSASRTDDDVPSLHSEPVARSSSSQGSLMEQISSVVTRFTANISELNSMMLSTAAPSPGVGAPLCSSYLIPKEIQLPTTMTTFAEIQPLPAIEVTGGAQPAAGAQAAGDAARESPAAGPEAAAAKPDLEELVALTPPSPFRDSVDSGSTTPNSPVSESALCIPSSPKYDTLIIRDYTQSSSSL
Assay: Intracellular Ca2+ mobilization assay (mGlu5 PAM)
Format: cell-based
Details: maximal response in % of the maximal stimulatory effect obtained with saturating concentrations of L-glutamate; read-out: Eff. (%)
MEASURED ENDPOINT: Emax (%)

{"columns": ["COMPOUND", "MEASURED ENDPOINT", "UNIT SPEC", "RECORDED NUMBER"],
 "data": [
  ["CN1C(=O)[C@@H](c2ccc(C#Cc3ccc(F)cc3)cn2)[C@@H]2CCCC[C@@H]21 [Example 42]", "Emax", "%", 63],
  ["CN1C(=O)[C@@H](c2ccc(C#Cc3cccc(F)c3)cn2)[C@@H]2CCCC[C@@H]21 [Example 40]", "Emax", "%", 68],
  ["CN1C(=O)C(c2ccc(C#Cc3ccccc3)cn2)CC1(C)C (racemic) [Example 1]", "Emax", "%", 111],
  ["CN1C(=O)C(c2ccc(C#Cc3ccccc3)cn2)CCC1(C)C (racemic) [Example 12]", "Emax", "%", 103],
  ["CN1C(=O)C(c2ccc(C#Cc3cccc(F)c3)nn2)CC1(C)C (racemic) [Example 9]", "Emax", "%", 88],
  ["CN1C(=O)C(c2ccc(C#Cc3cccc(F)c3)cn2)CC1(C)C (racemic) [Example 4]", "Emax", "%", 103],
  ["CN1C(=O)C(c2ccc(C#Cc3cccc(Cl)c3)cn2)CC1(C)C (racemic) [Example 3]", "Emax", "%", 81],
  ["CN1C(=O)[C@H](c2ccc(C#Cc3ccccc3)cn2)[C@@H]2CCCC[C@@H]21 (racemic) [Example 35]", "Emax", "%", 60],
  ["CN1CCCC[C@@H](c2ccc(C#Cc3ccccc3)cn2)C1=O (single isomer, unassigned) [Example 25]", "Emax", "%", 70],
  ["CN1C(=O)C(c2ncc(C#Cc3cccc(F)c3)cc2F)CC1(C)C (racemic) [Example 21]", "Emax", "%", 91],
  ["CN1C(=O)[C@@H](c2ccc(C#Cc3ccc(F)cc3)cn2)[C@@H]2CCC[C@@H]21 (racemic) [Example 29]", "Emax", "%", 53],
  ["CN1C(=O)C(c2ncc(C#Cc3ccc(F)cc3)cn2)CCC1(C)C (racemic) [Example 16]", "Emax", "%", 96],
  ["CN1C(=O)[C@H](c2ccc(C#Cc3cccc(F)c3)cn2)[C@H]2CCCC[C@H]21 [Example 41]", "Emax", "%", 56],
  ["CN1C(=O)[C@@H](c2ccc(C#Cc3ccnc(Cl)c3)cn2)CC1(C)C (single isomer, unassigned) [Example 45]", "Emax", "%", 36],
  ["CN1C(=O)C(c2ncc(C#Cc3ccccc3)cn2)CCC1(C)C (racemic) [Example 15]", "Emax", "%", 91],
  ["CN1C(=O)C(c2ccc(C#Cc3cccc(F)c3)cn2)CCC1(C)C (racemic) [Example 13]", "Emax", "%", 90]
]}
